Field: LC50. Provide a value for each of the molecules that follow.
- Tested on: SF-268
- measurement.notes: Growth inhibition of human SF268 cells by sulforhodamine B assay
- Type: functional
- particulars: read-out: pLC50 (converted)

SF-268 LC50 of `CC(C)=CC(=O)O[C@@H]1CC(C)(C)C[C@H]2C3=CC[C@@H]4[C@@]5(C)CC[C@H](O)C(C)(C)[C@@H]5CC[C@@]4(C)[C@]3(C)CC[C@@]12C(=O)O` is 97.7 µM

SF-268 LC50 of `CC(C)=CC(=O)O[C@@H]1CC(C)(C)C[C@H]2C3=CC[C@@H]4[C@@]5(C)CCC(=O)C(C)(C)[C@@H]5CC[C@@]4(C)[C@]3(C)CC[C@@]12C(=O)O` is > 100 µM

SF-268 LC50 of `CC1(C)C[C@@H](O)[C@]2(C(=O)O)CC[C@]3(C)C(=CC[C@@H]4[C@@]5(C)C/C(=C\C=C\c6ccccc6)C(=O)C(C)(C)[C@@H]5CC[C@]43C)[C@@H]2C1` is 45.7 µM

SF-268 LC50 of `C/C=C(/C)C(=O)O[C@@H]1CC(C)(C)C[C@H]2C3=CC[C@@H]4[C@@]5(C)CCC(=O)C(C)(C)[C@@H]5CC[C@@]4(C)[C@]3(C)CC[C@@]12C(=O)O` is > 100 µM
